Test: Toxicity liver stage against HepG2, at 10uM
Format: cell-based
Design: test concentration 10 uM, cell line HepG2-A16-CD81EGFP
Settings: human, HepG2-A16-CD81EGFP cells; read-out: INHIBITION
quantity_kind: cytotoxicity at 10 µM (%)
Answer format: numeric, % implied, no suffix.

# compound, readout_unit, observed_value
records = [
    ("CCc1ccsc1C(=O)NC(C#N)CC(C)C (configuration not stated)", "%", -15),
]

input: Which cytotoxicity at 10 µM value belongs to "Cc1cc(C(=O)NCc2ccccc2CN(C)Cc2ccco2)on1" ?
output: 3.57

input: Try O=S(=O)(NCC(O)c1ccoc1)c1ccc(Br)s1 (configuration not stated) next.
output: 5.76

input: Try Cc1c[nH]nc1C1CCN(C(=O)CC2CCCC2)C1 (configuration not stated) next.
output: -4.15

input: Try COCCc1noc(CN2CCOC(Cn3cc(C)cn3)C2)n1 (configuration not stated) next.
output: -4.18

input: Try CC(=O)N1CCN(c2ccnc(C)n2)CC(COc2ccccc2)C1 (configuration not stated) next.
output: -6.16

input: Try "Cc1cc(C)n(Cc2ccc(-c3noc(C(=O)NCCCO)n3)cc2)n1" next.
output: -1.49

input: Try c1ccc(C2Cn3ccnc3CN2Cc2ncc[nH]2)cc1 (configuration not stated) next.
output: -2.8

====

Experiment: Toxicity liver stage against HepG2, at 10uM
Format: cell-based
Design: test concentration 10 uM, cell line HepG2-A16-CD81EGFP
Conditions: human, HepG2-A16-CD81EGFP cells; read-out: INHIBITION
cytotoxicity at 10 µM for assorted molecules
Answer format: numeric, % implied, no suffix.

input: Which cytotoxicity at 10 µM value belongs to "CCN1CCN(C2CCN(Cc3nc(C)c(C)o3)CC2)C1=O" ?
output: -9.92

input: Try "Cc1ccc(C(=O)N2C[C@@H](NS(C)(=O)=O)[C@H](C(C)C)C2)cc1O" next.
output: -2.62

input: Try "CCOc1ccc(Cl)c(C(=O)N2CCN(c3ccncc3)CC2)n1" next.
output: -5.44

input: Try Cc1cc(C)n(CC2CCCCN2C(=O)c2ccc3[nH]nnc3c2)n1 (stereo unspecified) next.
output: 2.52

input: Try CCOCC(=O)N1Cc2nccn2CC(CN(C)C)C1 (stereo unspecified) next.
output: -124

input: Try "COc1cc(N2CCC[C@]3(C(=O)O)CN(C(C)C)C[C@@H]3C2)ncn1" next.
output: 4.14

====

Test: Toxicity liver stage against HepG2, at 10uM
Type: cell-based
Design: test concentration 10 uM, cell line HepG2-A16-CD81EGFP
Details: human, HepG2-A16-CD81EGFP cells; read-out: INHIBITION
Assign labels as follows, please: satisfied for cytotoxicity at 10 µM below -10%; not satisfied for cytotoxicity at 10 µM equal to or exceeding -10%.

Worked examples follow.
# molecule, class_label
records = [
    ("CN(C)CCCN(CCC#N)C(=O)Nc1ccc2[nH]ccc2c1", "satisfied"),
    ("CC(C)(C)c1cnc(CN2CCN(c3ncccn3)CC2)o1", "satisfied"),
    ("Cc1nc(C(C)C)sc1C(=O)NCCn1nc2ccccn2c1=O", "satisfied"),
    ("O=c1ccc(-n2ccnc2)nn1CCNS(=O)(=O)c1ccc(F)c(Cl)c1", "not satisfied"),
    ("CCCS(=O)(=O)N1CCN(CCCO)CC1", "not satisfied"),
    ("CCOCCOC(C)C(=O)Nc1nccn1Cc1ccccc1 (configuration not stated)", "not satisfied"),
    ("CC(C)(C)OC(=O)N1CCCN1C(=O)c1cccc2cc[nH]c12", "not satisfied"),
    ("CN1CCN([C@@H]2CCN(CC3=Cc4cc(Cl)ccc4OC3)C[C@H]2O)CC1", "not satisfied"),
    ("O=C(c1sccc1Br)N1CCOCC1", "not satisfied"),
    ("O=C(NCCN1CCCCC1)c1nc2ccccc2c(=O)[nH]1", "not satisfied"),
]

Kindly review the next molecule as well.
input: Regarding Cc1nn(C)c2nc(NCCCN3CCCC(CO)C3)sc12 (configuration not stated) , kindly confirm whether its cytotoxicity at 10 µM is beneath -10%.
output: satisfied
